# TEST TARGET: V1a (Homo sapiens, UniProt P37288)
# Sequence (P37288 whole entry): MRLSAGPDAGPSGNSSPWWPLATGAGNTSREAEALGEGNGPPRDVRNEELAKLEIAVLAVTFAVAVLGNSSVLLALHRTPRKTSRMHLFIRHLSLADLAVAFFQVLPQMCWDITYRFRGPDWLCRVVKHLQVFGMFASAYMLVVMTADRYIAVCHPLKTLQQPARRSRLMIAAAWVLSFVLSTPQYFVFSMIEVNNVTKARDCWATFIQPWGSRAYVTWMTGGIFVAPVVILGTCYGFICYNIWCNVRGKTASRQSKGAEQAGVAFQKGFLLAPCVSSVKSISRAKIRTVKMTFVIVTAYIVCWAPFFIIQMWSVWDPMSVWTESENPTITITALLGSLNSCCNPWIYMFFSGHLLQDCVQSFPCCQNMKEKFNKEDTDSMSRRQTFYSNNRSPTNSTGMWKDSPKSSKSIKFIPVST
# PROTOCOL DESCRIPTION: Human vasopression V1a receptor binding assay
# Parameters: host or cells: CHO cells (hV1a cell line), whole adherent cells
# CONDITION LABEL: hV1a cell line (CHO), 1 nM 3H-AVP; Table 17; read-out: V1a Binding Affinity (IC50 (nM))
# Procedure: Human vasopression V1a receptor binding assay. A cell line expressing the human V1a receptor in CHO cells (henceforth referred to as the hV1a cell line) was obtained from Dr. Michael Brownstein, NIMH, Bethesda, Md., USA. […] Samples were counted in a liquid scintillation counter (Beckman LS3801). IC50 values were calculated by Prism Curve fitting software. […]
MEASURED ATTRIBUTE: IC50 (nM)

{"columns": ["MOLECULE", "IC50 / nM"],
 "data": [
  ["O=C(NCc1cccc(C(F)(F)F)c1)C(C(=O)N1CCC(CCN2CCCCC2)CC1)N1C(=O)[C@@H](N2C(=O)OC[C@@H]2c2ccccc2)[C@H]1/C=C/c1ccccc1 (mixture of isomers) [Example 42A]", 1.77]
]}

P. CN(Cc1cccc(Br)c1)C(=O)[C@H](CCC(=O)N1CCN(C2CCCCC2)CC1)N1C(=O)[C@@H](N2C(=O)OC[C@@H]2c2ccccc2)[C@H]1/C=C/c1ccccc1 [Example 221D]
Q. O=C(NCc1cccnc1)[C@H](CCC(=O)N1CCN(C2CCCCC2)CC1)N1C(=O)[C@@H](N2C(=O)OC[C@@H]2c2ccccc2)[C@H]1/C=C/c1ccccc1
Request: Sorting ascending by IC50, which comes first: P or Q ? Pick one and reply with its label.
Result: P

meta.source: patent US9597314B2
